target: GSPT1 protein (Homo sapiens, UniProt P15170+Q96SW2); construct: endogenous in cells; host or cells: Jeko-1; test: Western blot detection of degradation activity of GSPT1 protein in Jeko-1 cells; format: cell-based; settings: JeKo-1, 24 h, 10 μM, Jeko-1 cells, 24 hours; read-out: GSPT1 degradation rate (%)
Sequence (P15170 whole entry): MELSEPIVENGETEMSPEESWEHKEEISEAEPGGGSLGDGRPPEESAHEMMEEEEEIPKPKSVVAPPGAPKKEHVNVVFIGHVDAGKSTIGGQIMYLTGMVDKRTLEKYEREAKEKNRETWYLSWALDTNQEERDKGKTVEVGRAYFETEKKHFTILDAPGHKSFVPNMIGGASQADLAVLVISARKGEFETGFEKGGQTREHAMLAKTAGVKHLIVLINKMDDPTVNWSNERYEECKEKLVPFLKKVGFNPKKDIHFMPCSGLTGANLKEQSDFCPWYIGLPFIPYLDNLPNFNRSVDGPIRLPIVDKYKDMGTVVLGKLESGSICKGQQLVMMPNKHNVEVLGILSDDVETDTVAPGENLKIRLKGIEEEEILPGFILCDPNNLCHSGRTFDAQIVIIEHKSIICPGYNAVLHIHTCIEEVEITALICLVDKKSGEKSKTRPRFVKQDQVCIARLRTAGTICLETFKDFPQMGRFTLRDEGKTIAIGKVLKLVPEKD
Sequence (Q96SW2 whole entry): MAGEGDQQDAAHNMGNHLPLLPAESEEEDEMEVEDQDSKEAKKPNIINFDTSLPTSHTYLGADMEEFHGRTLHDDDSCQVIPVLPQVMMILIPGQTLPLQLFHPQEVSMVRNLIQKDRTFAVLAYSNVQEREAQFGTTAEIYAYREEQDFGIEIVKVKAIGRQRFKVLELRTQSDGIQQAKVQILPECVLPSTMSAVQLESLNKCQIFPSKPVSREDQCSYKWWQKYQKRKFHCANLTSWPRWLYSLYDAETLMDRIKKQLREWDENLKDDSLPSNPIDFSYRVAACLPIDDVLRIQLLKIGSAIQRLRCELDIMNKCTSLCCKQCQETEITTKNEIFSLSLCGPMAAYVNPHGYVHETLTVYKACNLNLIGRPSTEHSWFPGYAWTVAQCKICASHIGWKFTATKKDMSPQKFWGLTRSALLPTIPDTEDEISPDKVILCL
Sequence (Q16531 whole entry partner): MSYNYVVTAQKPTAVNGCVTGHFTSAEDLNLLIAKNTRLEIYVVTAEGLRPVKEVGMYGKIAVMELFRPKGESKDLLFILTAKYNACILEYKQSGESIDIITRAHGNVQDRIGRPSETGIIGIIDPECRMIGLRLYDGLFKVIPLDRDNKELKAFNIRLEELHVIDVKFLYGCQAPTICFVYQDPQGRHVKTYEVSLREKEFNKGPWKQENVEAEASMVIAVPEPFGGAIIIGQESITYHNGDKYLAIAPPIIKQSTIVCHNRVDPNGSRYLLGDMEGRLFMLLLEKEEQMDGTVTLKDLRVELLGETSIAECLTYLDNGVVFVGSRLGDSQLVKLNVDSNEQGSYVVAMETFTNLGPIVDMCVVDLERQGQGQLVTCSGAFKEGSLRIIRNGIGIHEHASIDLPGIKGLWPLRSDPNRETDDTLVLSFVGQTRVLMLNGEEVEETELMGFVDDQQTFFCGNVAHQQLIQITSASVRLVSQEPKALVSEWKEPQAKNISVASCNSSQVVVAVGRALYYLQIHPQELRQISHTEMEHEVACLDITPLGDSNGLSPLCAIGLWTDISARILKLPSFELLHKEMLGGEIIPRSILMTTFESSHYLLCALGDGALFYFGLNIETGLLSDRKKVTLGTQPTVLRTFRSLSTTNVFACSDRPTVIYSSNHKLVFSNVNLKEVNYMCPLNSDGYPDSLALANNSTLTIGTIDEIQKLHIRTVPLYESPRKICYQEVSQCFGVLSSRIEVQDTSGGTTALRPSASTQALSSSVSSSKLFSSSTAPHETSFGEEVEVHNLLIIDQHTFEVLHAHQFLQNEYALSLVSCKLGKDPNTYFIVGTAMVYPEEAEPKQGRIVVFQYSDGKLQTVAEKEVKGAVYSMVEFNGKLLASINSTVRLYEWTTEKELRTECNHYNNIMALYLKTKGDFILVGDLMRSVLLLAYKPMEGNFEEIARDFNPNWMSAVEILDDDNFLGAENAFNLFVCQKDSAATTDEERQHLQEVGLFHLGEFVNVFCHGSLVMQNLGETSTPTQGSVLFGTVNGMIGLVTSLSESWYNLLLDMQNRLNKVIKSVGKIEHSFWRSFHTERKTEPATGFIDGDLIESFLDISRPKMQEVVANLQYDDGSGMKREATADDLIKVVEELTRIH
QUANTITY_NAME: inhibition at 10 µM (%)

Worked cases, answers included:
- MOLECULE: "O=C1CCC(N2Cc3cc(CNC(=O)[C@@H](CNC(=O)C4CCCC4)c4ccc(Cl)cc4)ccc3C2=O)C(=O)N1 (stereo partly shown)"
  inhibition at 10 µM / %: 92.7
- MOLECULE: "CC(C)C[C@@H](NC(=O)OC(C)(C)C)C(=O)NCc1ccc2c(c1)CN(C1CCC(=O)NC1=O)C2=O (stereo partly shown)"
  inhibition at 10 µM / %: 92.7
- MOLECULE: "O=C1CCC(N2Cc3cc(CNC(=O)C(CNC(=O)C4CCCCC4)c4ccccc4)ccc3C2=O)C(=O)N1 (stereo not shown)"
  inhibition at 10 µM / %: 96
- MOLECULE: "CCN(C(=O)OC(C)(C)C)[C@H](C(=O)NCc1ccc2c(c1)CN(C1CCC(=O)NC1=O)C2=O)c1ccccc1 (stereo partly shown)"
  inhibition at 10 µM / %: 98.7

1. CC(C)(C)OC(=O)NCC(C(=O)NCc1ccc2c(c1)CN(C1CCC(=O)NC1=O)C2=O)c1ccc(Cl)cc1 (stereo not shown)
2. N[C@H](C(=O)NCc1ccc2c(c1)CN(C1CCC(=O)NC1=O)C2=O)c1ccccc1 (stereo partly shown)
3. CC(C)(C)NC(=O)CNC(Cc1ccccc1)C(=O)NCc1ccc2c(c1)CN(C1CCC(=O)NC1=O)C2=O (stereo not shown)
Arrange by inhibition at 10 µM, high to low. As an answer, provide the labels arranged in the order called for. 1, 3, 2

====

Target: GSPT1 protein (Homo sapiens, UniProt P15170+Q96SW2)
Construct: endogenous in cells; host or cells: Jeko-1
Test: Western blot detection of degradation activity of GSPT1 protein in Jeko-1 cells
Assay type: cell-based
Conditions: JeKo-1, 24 h, 100 nM, Jeko-1 cells, 24 hours; read-out: GSPT1 degradation rate (%)
Method: Test Example 1: Western Blot Detection of Degradation Activity of GSPT1 Protein by the Compounds […] DMSO control group and test compound (concentration shown in the table below) were set up, after processing for 24 hours, the cells were collected, pre-cooled cell lysate was added and left on ice for 10 minutes. The total protein of the cells was extracted, and the protein concentration was measured and quantified using the BCA method. […]
QUANTITY_NAME: inhibition at 0.1 µM (%)

Worked cases, answers included:
- COMPOUND: "O=C1CCC(N2Cc3cc(CNC(=O)[C@@H](NC(=O)NCc4ccccc4)c4ccccc4)ccc3C2=O)C(=O)N1 (stereo partly drawn)"
  inhibition at 0.1 µM, %: 21
- COMPOUND: "CC(C)(C)OC(=O)NC(C(=O)NCc1ccc2c(c1)CN(C1CCC(=O)NC1=O)C2=O)c1ccccc1F (stereo not drawn)"
  inhibition at 0.1 µM, %: 100
- COMPOUND: "CC(C)(C)OC(=O)NC(CC(=O)NCc1ccc2c(c1)CN(C1CCC(=O)NC1=O)C2=O)C1CCCC1 (stereo not drawn)"
  inhibition at 0.1 µM, %: 98
- COMPOUND: "CC(C)(C)OC(=O)NCC(C(=O)NCc1ccc2c(c1)CN(C1CCC(=O)NC1=O)C2=O)c1ccc(Cl)cc1 (stereo not drawn)"
  inhibition at 0.1 µM, %: 96.9
- COMPOUND: "O=C1CCC(N2Cc3cc(CNC(=O)C(CNC(=O)C4CCCCC4)c4ccccc4)ccc3C2=O)C(=O)N1 (stereo not drawn)"
  inhibition at 0.1 µM, %: 58

a. CC(C)C[C@@H](NC(=O)OC(C)(C)C)C(=O)NCc1ccc2c(c1)CN(C1CCC(=O)NC1=O)C2=O (stereo partly drawn)
b. O=C1CCC(N2Cc3cc(CNC(=O)[C@H](CC4CCCCC4)NC(=O)C4CCCC4)ccc3C2=O)C(=O)N1 (stereo partly drawn)
c. CC(C)(C)NC(=O)CNC(Cc1ccccc1)C(=O)NCc1ccc2c(c1)CN(C1CCC(=O)NC1=O)C2=O (stereo not drawn)
Order the entries by their reported inhibition at 0.1 µM, beginning at the minimum. As an answer, provide the labels arranged in the order called for. c, b, a

====

Reported inhibition at 0.1 µM values follow for various molecules
molecular target: GSPT1 protein (Homo sapiens, UniProt P15170+Q96SW2); construct: endogenous in cells; host or cells: Jeko-1; assay: Western blot detection of degradation activity of GSPT1 protein in Jeko-1 cells; format: cell-based; settings: JeKo-1, 24 h, read-out: GSPT1 degradation rate (%)
The figure you give is taken to be in %; do not add the unit.

- MOLECULE: "O=C1CCC(N2Cc3cc(CNC(=O)C(CNC(=O)Nc4ccccc4)c4ccccc4)ccc3C2=O)C(=O)N1 (stereo not drawn)"
  UNIT_ABBREVIATION: "%"
  inhibition at 0.1 µM: 17
- MOLECULE: "O=C1CCC(N2Cc3cc(CNC(=O)[C@@H](NC(=O)OC4CCCC4)c4ccccc4)ccc3C2=O)C(=O)N1 (stereo partly drawn)"
  UNIT_ABBREVIATION: "%"
  inhibition at 0.1 µM: 93
- MOLECULE: "CC(C)OC(=O)N[C@@H](CC1CCCCC1)C(=O)NCc1ccc2c(c1)CN(C1CCC(=O)NC1=O)C2=O (stereo partly drawn)"
  UNIT_ABBREVIATION: "%"
  inhibition at 0.1 µM: 85
- MOLECULE: "CC(C)OC(=O)N[C@H](C(=O)NCc1ccc2c(c1)CN(C1CCC(=O)NC1=O)C2=O)c1ccccc1 (stereo partly drawn)"
  UNIT_ABBREVIATION: "%"
  inhibition at 0.1 µM: 96
- MOLECULE: "CN(C(=O)OC1CCCC1)[C@H](C(=O)NCc1ccc2c(c1)CN(C1CCC(=O)NC1=O)C2=O)c1ccccc1 (stereo partly drawn)"
  UNIT_ABBREVIATION: "%"
  inhibition at 0.1 µM: 97
- MOLECULE: "O=C1CCC(N2Cc3cc(CNC(=O)[C@H](CC4CCCCC4)NC(=O)OC4CCCC4)ccc3C2=O)C(=O)N1 (stereo partly drawn)"
  UNIT_ABBREVIATION: "%"
  inhibition at 0.1 µM: 99
- MOLECULE: "CC(C)OC(=O)N[C@@H](Cc1ccccc1)C(=O)NCc1ccc2c(c1)CN(C1CCC(=O)NC1=O)C2=O (stereo partly drawn)"
  UNIT_ABBREVIATION: "%"
  inhibition at 0.1 µM: 65.2
- MOLECULE: "CC(C)OC(=O)N[C@H](Cc1ccccc1)C(=O)NCc1ccc2c(c1)CN(C1CCC(=O)NC1=O)C2=O (stereo partly drawn)"
  UNIT_ABBREVIATION: "%"
  inhibition at 0.1 µM: 77.7
- MOLECULE: "O=C1CCC(N2Cc3cc(CNC(=O)C(CNC(=O)c4ccccc4)c4ccccc4)ccc3C2=O)C(=O)N1 (stereo not drawn)"
  UNIT_ABBREVIATION: "%"
  inhibition at 0.1 µM: 33
- MOLECULE: "CC(C)C1CC[C@H](C)C[C@@H]1OC(=O)N[C@H](C(=O)NCc1ccc2c(c1)CN(C1CCC(=O)NC1=O)C2=O)c1ccccc1 (stereo partly drawn)"
  UNIT_ABBREVIATION: "%"
  inhibition at 0.1 µM: 93

Name the recorded inhibition at 0.1 µM for O=C1CCC(N2Cc3cc(CNC(=O)C(CNC(=O)OC4CCCC4)c4ccccc4)ccc3C2=O)C(=O)N1 (stereo not drawn) . 76

Name the recorded inhibition at 0.1 µM for O=C1CCC(N2Cc3cc(CNC(=O)C(CNC(=O)Oc4ccccc4)c4ccccc4)ccc3C2=O)C(=O)N1 (stereo not drawn) . 73

====

system: Jeko-1 cells; experiment: CCK8 method, inhibition of Jeko-1 cell proliferation; type: cell-based; conditions: Homo sapiens; Jeko-1, 72 hours; read-out: Cellular proliferation inhibition IC50
Reported IC50 values follow for various compounds
The figure you give is taken to be in pM; do not add the unit.

- COMPOUND: "CC(C)OC(=O)N[C@H](Cc1ccccc1)C(=O)NCc1ccc2c(c1)CN(C1CCC(=O)NC1=O)C2=O (stereo partly shown) [Compound 5-22]"
  IC50 (pM): 600
- COMPOUND: "CC(C)(C)OC(=O)NCC(C(=O)NCc1ccc2c(c1)CN(C1CCC(=O)NC1=O)C2=O)c1ccc(Cl)cc1 (stereo not shown) [Compound 5-41]"
  IC50 (pM): 40
- COMPOUND: "CN(C(=O)OC1CCCC1)[C@H](C(=O)NCc1ccc2c(c1)CN(C1CCC(=O)NC1=O)C2=O)c1ccccc1 (stereo partly shown) [Compound 5-36]"
  IC50 (pM): 1000
- COMPOUND: "CC(C)(C)OC(=O)N[C@@H](CC1CCCCC1)C(=O)NCc1ccc2c(c1)CN(C1CCC(=O)NC1=O)C2=O (stereo partly shown) [Compound 5-46]"
  IC50 (pM): 200
- COMPOUND: "CC(C)(C)OC(=O)NC(C(=O)NCc1ccc2c(c1)CN(C1CCC(=O)NC1=O)C2=O)c1ccccc1F (stereo not shown) [Compound 5-5]"
  IC50 (pM): 200

Name the recorded IC50 for CC(C)(C)OC(=O)N[C@@H](Cc1ccccc1)C(=O)NCc1ccc2c(c1)CN(C1CCC(=O)NC1=O)C2=O (stereo partly shown) [Compound 5-37] . 600

Name the recorded IC50 for O=C1CCC(N2Cc3cc(CNC(=O)[C@@H](NC(=O)OC4CCCC4)c4ccccc4)ccc3C2=O)C(=O)N1 (stereo partly shown) [Compound 4-159] . 20

Name the recorded IC50 for CC(C)(C)OC(=O)N[C@H](C(=O)NCc1ccc2c(c1)CN(C1CCC(=O)NC1=O)C2=O)c1ccc(F)c(Cl)c1 (stereo partly shown) [Compound 4-152] . 700

Name the recorded IC50 for CC(C)C1CC[C@H](C)C[C@@H]1OC(=O)N[C@H](C(=O)NCc1ccc2c(c1)CN(C1CCC(=O)NC1=O)C2=O)c1ccccc1 (stereo partly shown) [Compound 4-175] . 30

Name the recorded IC50 for CC(C)(C)OC(=O)N[C@H](C(=O)NCc1ccc2c(c1)CN(C1CCC(=O)NC1=O)C2=O)c1ccccc1 (stereo partly shown) [Compound 4-87] . 200

Name the recorded IC50 for CC(C)(C)OC(=O)N[C@H](C(=O)NCc1ccc2c(c1)CN(C1CCC(=O)NC1=O)C2=O)c1ccccc1Cl (stereo partly shown) [Compound 5-17] . 100

Name the recorded IC50 for CC(C)(C)OC(=O)N[C@H](C(=O)NCc1ccc2c(c1)CN(C1CCC(=O)NC1=O)C2=O)c1ccc(Cl)cc1 (stereo partly shown) [Compound 4-150] . 3900

Name the recorded IC50 for CC(C)(C)OC(=O)NC(C(=O)NCc1ccc2c(c1)CN(C1CCC(=O)NC1=O)C2=O)c1ccc(Cl)c(Cl)c1 (stereo not shown) [Compound 4-151] . 1300
